B1: HSP90AB1 (parent)
chain: QVANSAFVERVRKRGFEVVYMTEP

- Variants of: B1
- Run Description: protein stability index of a GFP-peptide fusion (GPS, HEK-293T) (PSI 1-6); higher = more stable;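 further: lentivirally expressed fusions sorted by FACS into six bins by GFP to DsRed ratio, PSI derived from sequencing read proportions per bin multiplied by bin number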
- Details: c terminus: a fixed tail appended
The entries below are paired with their reported protein stability index.
// no unit string in output, number only

These recorded examples may help you get a feel for the data.
The recorded protein stability index for entry Y20N equals 3.62

The variant R10D showed protein stability index equal to 2.58

Kindly note the recorded protein stability index for S5W , which is 1.97

The measured protein stability index associated with R14P reads 2.51

According to the records, this variant K13C displays protein stability index of 1.61

Further cases:
The reported protein stability index of the variant V19Q was 2.33

Short answer for R10Q : protein stability index was 2.17

Notebook: M21T , protein stability index read as 3.05

// protein stability index lookup, variant = R14D , result: 3.23

Entry K13P — recorded protein stability index = 2.63

Short answer for A3L : protein stability index was 1.85
